- TEST_TARGET: T1, TNKS2 ARC4 (488–649) (human, UniProt Q9H2K2 488-649)
- T1 sequence (looked up): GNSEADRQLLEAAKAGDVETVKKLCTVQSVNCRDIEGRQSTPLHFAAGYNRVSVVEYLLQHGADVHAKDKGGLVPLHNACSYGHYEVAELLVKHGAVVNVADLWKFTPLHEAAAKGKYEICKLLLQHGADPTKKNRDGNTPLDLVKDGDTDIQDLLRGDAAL
- ASSAY_EXPLANATION: fluorescence polarisation; competitive FP; T-pep1 (20 nM) with TNKS2 ARC4 (3 μM) as tracer, unlabeled peptide serially diluted; PBS, 0.05% Tween 20; 30 min at 25 °C
- STATED_CONDITIONS: both partners purified
Ends that are not written are not given here.
MEASURED_METRIC: Kd (nM)
# number only, unit nM dropped from output

Documented Kd of Ac-REAGDGEE [pep1] : 1200
